Target: HIV-1 94UG103 Env (pseudovirus) (HIV-1 isolate 94UG103)
Assay: cell-based or functional assay
property.measured: IC50 (µg/mL), pseudovirus neutralization
Answer with a number only, understood to be in µg/mL.

Which IC50 (µg/mL), pseudovirus neutralization is listed for 1443_C16 (PG16) (TCN-116) (antibody, V domains shown) VH: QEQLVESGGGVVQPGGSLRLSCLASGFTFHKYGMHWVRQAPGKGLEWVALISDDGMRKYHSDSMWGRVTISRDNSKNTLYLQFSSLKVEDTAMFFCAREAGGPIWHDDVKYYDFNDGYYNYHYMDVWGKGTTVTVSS VL: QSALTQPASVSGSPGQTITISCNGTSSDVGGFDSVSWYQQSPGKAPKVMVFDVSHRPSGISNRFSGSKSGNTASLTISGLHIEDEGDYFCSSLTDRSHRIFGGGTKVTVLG ? 0.008
